Would you mind telling me the reported growth inhibition of each entry?
# protocolNotes: NCI Yeast Anticancer Drug Screen. Data for the mlh1 rad18 strain (AID 175)
# conditionLabel: S. cerevisiae mlh1 rad18 strain growth inhibition; at 50.0 µM; active compounds read high
This is part of a sample that, as a whole, favours compounds with a hit. Of some 79,000 tested, about 15% had one in any assay.
Give bare numbers, in %.

CCC(=O)NCCO :: -5.25
Cc1[nH]nc(C(=O)O)c1[N+](=O)[O-] :: 8.2
Cn1c2c(cc(-c3ccccc3)c1=O)COc1ccccc1-2 :: 24.1
O=[N+]([O-])C(Cl)C(Cl)C(Cl)=C(Cl)Cl (centres undefined) :: 52.2
CCCCc1ccncc1 :: 19.6
CCOC(=O)CCC1(CCC(=O)OCC)c2ccccc2-c2ccccc21 :: 13
Cc1ccc(-c2cn3c(nc4ccccc43)c(C)n2)cc1 :: -29.5
CN1CCN(CC(=O)N2c3ccccc3Sc3cc4ccccc4cc32)CC1 :: 28.6
Cc1c([N+](=O)[O-])ccc2c1C(=O)c1ccccc1C2=O :: 39.5
Cc1cc(Br)c(O)c(-c2cscn2)c1 :: 3

Please give growth inhibition for each item listed below.
1. CN(C)N=Nc1ccc(C(=O)N/N=C/c2ccccc2[N+](=O)[O-])cc1
2. CC1CNC2C(C)C3C(CC4C5CCC6CC(N=Cc7ccccc7O)CCC6(C)C5CCC43C)OC2(O)C1 (centres undefined)
3. OC(c1ccccc1)C1CC2C=CC1C2 (centres undefined)
4. O=C(COc1ccc(F)cc1)OCCO
5. O=[N+]([O-])c1ccc(N/N=C/c2ccccc2O)c([N+](=O)[O-])c1
6. CCCCCCCCCCCCCCCCNc1nc(=S)cc(C)[nH]1

Given back:
1. -40.8
2. 0.55
3. 2.6
4. -18.9
5. 4.2
6. -10.9
